pIC50: −log10 of the molar value.
Study the reported pIC50 values for PIK3CD (Human) (UniProt O00329) given below; they originate from different publications.

Task: Report value only: pIC50, PIK3CD (Human) (UniProt O00329), Cc1cccc2cc(Cn3nc(-c4cc(O)cc(F)c4)c4c(N)ncnc43)n(-c3ccccc3OCCN3CCOCC3)c(=O)c12
Output: > 7.00

Task: Report value only: pIC50, PIK3CD (Human) (UniProt O00329), CN1CCN(C(=O)Cn2cc(Nc3ncc4cc(C#N)c(=O)n(C5CCCC5)c4n3)cn2)CC1
Output: < 4.52

Task: Report value only: pIC50, PIK3CD (Human) (UniProt O00329), O=S(=O)(N[C@H]1CC[C@H](Nc2cc(-n3c(C(F)F)nc4ccccc43)nc(N3CCOCC3)n2)CC1)c1ccccc1
Output: 8.31

Task: Report value only: pIC50, PIK3CD (Human) (UniProt O00329), CN(CC(C)(C)O)[C@H]1CC[C@H](CNc2nc(N3CCOCC3)cc(-n3c(C(F)F)nc4ccccc43)n2)CC1
Output: 7.92

Task: Report value only: pIC50, PIK3CD (Human) (UniProt O00329), Cc1cccc2cc([C@H](C)Nc3ncnc4[nH]cnc34)n(C3CC3)c(=O)c12
Output: > 7.00

Task: Report value only: pIC50, PIK3CD (Human) (UniProt O00329), Nc1nc2cc(-c3ccc4ncc(C(=O)N5CCOCC5)n4c3)ccc2s1
Output: < 5.00

Task: Report value only: pIC50, PIK3CD (Human) (UniProt O00329), Nc1nc2cc(-c3ccc4ncc(C(=O)N5CC(N6CC[C@@H](O)C6)C5)n4c3)ccc2o1
Output: < 5.00

* * *

Study the reported IC50 values for PIK3CD (Human) (UniProt O00329) given below; they originate from different publications.

Here are 3 compounds together with their reported answers.
Nc1nc2cc(-c3ccc4ncc(C#CC5CC5)n4c3)ccc2o1: < 100 nM
Cc1cccc2cc(Cn3nc(C#C[C@@H](C)O)c4c(N)ncnc43)n(-c3ccccc3C(C)C)c(=O)c12: < 100 nM
COc1ncc(-c2nc(N3CCOCC3)nc3c(CN4C[C@@H](C)O[C@@H](C)C4)csc23)cc1NS(C)(=O)=O: 99 nM

Pending compound:
Task: Report value only: IC50, PIK3CD (Human) (UniProt O00329), CC(C)c1ccnc2c(C(=O)N[C@@H](C)c3cc4cccc(Cl)c4c(=O)n3-c3ccccc3)c(N)nn12
Output: > 10000 nM

* * *

Study the reported IC50 values for PIK3CD (Human) given below; they originate from different publications.
Write down the numeric answer in nM and omit the unit.

Here are 2 compounds together with their reported answers.
Cc1sc2c(-c3cccc4[nH]ncc34)nc(N3CCOCC3)nc2c1CN1CCN(S(C)(=O)=O)CC1: 60.4
N#Cc1cc2cnc(Nc3ccc(N4CCNCC4)cc3)cc2n(C2CCCC2)c1=O: 905

Pending compound:
Task: Report value only: IC50, PIK3CD (Human), CCOC1CCN(Cc2c(C)sc3c(-c4cnc(OC)c(NS(C)(=O)=O)c4)nc(N4CCOCC4)nc23)CC1
Output: 8.4

* * *

Study the reported IC50 values for PIK3CD (Human) given below; they originate from different publications.

Here are 5 molecules together with their reported answers.
C[C@H](NC(=O)c1c(N)nn2cccnc12)c1cc2scc(-c3cnn(C)c3)c2c(=O)n1-c1ccccc1: > 10 µM
COc1ncc(-c2nc(N3CCOCC3)nc3c(CN4CCC(C(C)(C)O)CC4)c(C)sc23)cc1NS(=O)(=O)C(F)(F)F: 0.0026 µM
Cc1cccc2cc([C@H](C)NC(=O)c3c(N)nn4cccnc34)n(-c3ccccc3)c(=O)c12: 1 to 10 µM
Cc1ccccc1-n1c(Cn2nc(CCC(=O)N3CCOCC3)c3c(N)ncnc32)cc2cccc(C)c2c1=O: < 10 µM
C[C@H](NC(=O)c1cnn2cccnc12)c1cc2cccc(Cl)c2c(=O)n1-c1ccc(F)cc1: 1 to 10 µM

Task: Report value only: IC50, PIK3CD (Human), Cc1nn([C@@H](C)c2cc(Cl)c(F)c3c2O[C@@H](C)CN(C2CN(C[C@@H](C)O)C2)C3)c2ncnc(N)c12
Output: ≤ 0.1 µM

Task: Report value only: IC50, PIK3CD (Human), CC(C)N1CCN(C2CN(c3cnc4ccc(-c5ccc6oc(N)nc6c5)nc4n3)C2)CC1
Output: > 10 µM

Task: Report value only: IC50, PIK3CD (Human), COc1ncc(-c2nc(N3CCOCC3)nc3c(CN4CCN(C(=O)NCC(F)(F)F)CC4)csc23)cc1NS(C)(=O)=O
Output: 0.012 µM

Task: Report value only: IC50, PIK3CD (Human), CN1CCC(NC(=O)c2cnc3ccc(-c4ccc5oc(N)nc5c4)cn23)CC1
Output: < 0.1 µM

Task: Report value only: IC50, PIK3CD (Human), N#CCc1ccc(Nc2ncnc3ccc(-c4cccc([N+](=O)[O-])c4)cc23)cc1
Output: > 10 µM
